// data source = patent US6825230B2

- System: ANKA strain of P. berghei
- assay: Single dose STI in vivo screen in infected mice
- Design: species or system Plasmodium berghei
- condition_notes: single 10 mg/kg sc in 3% ethanol and 7% Tween 80; untreated 6-7 days
Counter-ions that a name gives are not always drawn.
Provide the recorded Survival (days) 10 mg/kg sc for the entries that follow.
Give the quantity in days, number only.

IN: Would you kindly share the measured Survival (days) 10 mg/kg sc for CN(C)C(=O)NC[C@H]1CC[C@]2(CC1)OOC1(O2)C2CC3CC(C2)CC1C3 (stereo partly shown) ?
OUT: 11.7

IN: Would you kindly share the measured Survival (days) 10 mg/kg sc for O=C([C@H]1CC[C@]2(CC1)OOC1(O2)C2CC3CC(C2)CC1C3)N1CCN(c2ccccc2)CC1 (stereo partly shown) [OZ140, hydrochloride] ?
OUT: 7.0

IN: Would you kindly share the measured Survival (days) 10 mg/kg sc for CCS(=O)(=O)CCN1CCC2(CC1)OOC1(O2)C2CC3CC(C2)CC1C3 (stereo not shown) ?
OUT: 8.0

IN: Would you kindly share the measured Survival (days) 10 mg/kg sc for O=C(O)C1(C(=O)O)COC2(CCC3(CC2)OOC2(O3)C3CC4CC(C3)CC2C4)OC1 (stereo not shown) ?
OUT: 5.0

---

- System: ANKA strain of P. berghei
- assay: Single dose STI in vivo screen in infected mice
- Parameters: species or system Plasmodium berghei
- condition_notes: single 10 mg/kg sc in 3% ethanol and 7% Tween 80; untreated 6-7 days
Where a name gives a salt, the structure may show the parent alone.
Lab note - cut at 9 days for Survival (days) 10 mg/kg sc: MET if strictly below, NOT MET if not.

IN: Does this compound meet the criterion Survival (days) 10 mg/kg sc < 9 days? C=C1COC2(CCC3(CC2)OOC2(O3)C3CC4CC(C3)CC2C4)OC1 (stereo not drawn)
OUT: NOT MET

IN: Does this compound meet the criterion Survival (days) 10 mg/kg sc < 9 days? CC(C)(O)[C@H]1CC[C@]2(CC1)OOC1(O2)C2CC3CC(C2)CC1C3 (stereo partly drawn)
OUT: MET

IN: Does this compound meet the criterion Survival (days) 10 mg/kg sc < 9 days? O=C(O)c1cn(C[C@H]2CC[C@]3(CC2)OOC2(O3)C3CC4CC(C3)CC2C4)cn1 (stereo partly drawn)
OUT: MET

IN: Does this compound meet the criterion Survival (days) 10 mg/kg sc < 9 days? O=C(C[C@H]1CC[C@]2(CC1)OOC1(O2)C2CC3CC(C2)CC1C3)NO (stereo partly drawn)
OUT: MET

IN: Does this compound meet the criterion Survival (days) 10 mg/kg sc < 9 days? N=C(N)N1CCC2(CC1)OOC1(O2)C2CC3CC(C2)CC1C3 (stereo not drawn) [OZ191, hydrochloride]
OUT: MET

IN: Does this compound meet the criterion Survival (days) 10 mg/kg sc < 9 days? CC(C)N(C(=O)N1CCC2(CC1)OOC1(O2)C2CC3CC(C2)CC1C3)C(C)C (stereo not drawn)
OUT: NOT MET

IN: Does this compound meet the criterion Survival (days) 10 mg/kg sc < 9 days? CN(C)C(=O)N1CCC2(CC1)OOC1(O2)C2CC3CC(C2)CC1C3 (stereo not drawn)
OUT: MET

IN: Does this compound meet the criterion Survival (days) 10 mg/kg sc < 9 days? COCC(=O)N(Cc1ccccc1)C1CCC2(CC1)OOC1(O2)C2CC3CC(C2)CC1C3 (stereo not drawn)
OUT: NOT MET

IN: Does this compound meet the criterion Survival (days) 10 mg/kg sc < 9 days? COCC(=O)N(C1CCCCC1)C1CCC2(CC1)OOC1(O2)C2CC3CC(C2)CC1C3 (stereo not drawn)
OUT: NOT MET

IN: Does this compound meet the criterion Survival (days) 10 mg/kg sc < 9 days? O=C(NO)c1ccc([C@H]2CC[C@]3(CC2)OOC2(O3)C3CC4CC(C3)CC2C4)cc1 (stereo partly drawn)
OUT: MET

IN: Does this compound meet the criterion Survival (days) 10 mg/kg sc < 9 days? CN(C)S(=O)(=O)N1CCC2(CC1)OOC1(O2)C2CC3CC(C2)CC1C3 (stereo not drawn)
OUT: MET

IN: Does this compound meet the criterion Survival (days) 10 mg/kg sc < 9 days? CC(C)(C)NC(=O)N1CCC2(CC1)OOC1(O2)C2CC3CC(C2)CC1C3 (stereo not drawn)
OUT: NOT MET

IN: Does this compound meet the criterion Survival (days) 10 mg/kg sc < 9 days? O=C(NCCO)[C@H]1CC[C@]2(CC1)OOC1(O2)C2CC3CC(C2)CC1C3 (stereo partly drawn)
OUT: MET

IN: Does this compound meet the criterion Survival (days) 10 mg/kg sc < 9 days? O=C(O)COCC(=O)N1CCC2(CC1)OOC1(O2)C2CC3CC(C2)CC1C3 (stereo not drawn)
OUT: MET

IN: Does this compound meet the criterion Survival (days) 10 mg/kg sc < 9 days? O=C(NC[C@H]1CC[C@]2(CC1)OOC1(O2)C2CC3CC(C2)CC1C3)c1cc[n+]([O-])cc1 (stereo partly drawn)
OUT: NOT MET

---

- Tested on: Schistosoma mansoni adult worms (49-day-old)
- assay: Effect on adult schistosomes (49-day-old) in infected mice
- Assay type: in vivo
- condition_notes: single 400 mg/kg per os; percentage of dead worm in the liver
- Protocol: Mice were infected with 100 Schistosoma mansoni cercariae on day 49 post-treatment. Each group was treated per os with OZ compounds at single doses of 200, 400, and 600 mg/kg. Untreated mice served as the control. All groups were killed 4 weeks after treatment and the liver and intestine were removed and separated. The liver and intestine were compressed and alive male and female worms could be seen and counted.
Lab note - cut at 8% for Adult worms day 49, per os 400 mg/kg, DEAD WORM (%): y if strictly below, n if not.

IN: Does this compound meet the criterion Adult worms day 49, per os 400 mg/kg, DEAD WORM (%) < 8%? c1ccc(C[C@H]2CC[C@]3(CC2)OOC2(O3)C3CC4CC(C3)CC2C4)cc1 (stereo partly shown)
OUT: y

IN: Does this compound meet the criterion Adult worms day 49, per os 400 mg/kg, DEAD WORM (%) < 8%? CC1(C)COC(c2ccc([C@H]3CC[C@]4(CC3)OOC3(O4)C4CC5CC(C4)CC3C5)cc2)=N1 (stereo partly shown)
OUT: y

IN: Does this compound meet the criterion Adult worms day 49, per os 400 mg/kg, DEAD WORM (%) < 8%? O=C(c1ccccc1)N1CCC2(CC1)OOC1(O2)C2CC3CC(C2)CC1C3 (stereo not shown)
OUT: y

IN: Does this compound meet the criterion Adult worms day 49, per os 400 mg/kg, DEAD WORM (%) < 8%? CON=C1CCC2(CC1)OOC1(O2)C2CC3CC(C2)CC1C3 (stereo not shown)
OUT: n

IN: Does this compound meet the criterion Adult worms day 49, per os 400 mg/kg, DEAD WORM (%) < 8%? CCCC1CCC2(CC1)OOC1(O2)C2CC3CC(C2)CC1C3 (stereo not shown)
OUT: n

IN: Does this compound meet the criterion Adult worms day 49, per os 400 mg/kg, DEAD WORM (%) < 8%? NCC(=O)NC[C@H]1CC[C@]2(CC1)OO[C@]1(O2)C2CC3CC(C2)CC1C3
OUT: y

IN: Does this compound meet the criterion Adult worms day 49, per os 400 mg/kg, DEAD WORM (%) < 8%? OC1(c2ccc(F)cc2)CCC2(CC1)OOC1(O2)C2CC3CC(C2)CC1C3 (stereo not shown)
OUT: y

IN: Does this compound meet the criterion Adult worms day 49, per os 400 mg/kg, DEAD WORM (%) < 8%? CCS(=O)(=O)N1CCC2(CC1)OOC1(O2)C2CC3CC(C2)CC1C3 (stereo not shown)
OUT: y

IN: Does this compound meet the criterion Adult worms day 49, per os 400 mg/kg, DEAD WORM (%) < 8%? O=C(C[C@H]1CC[C@]2(CC1)OOC1(O2)C2CC3CC(C2)CC1C3)N1CCOCC1 (stereo partly shown)
OUT: n

IN: Does this compound meet the criterion Adult worms day 49, per os 400 mg/kg, DEAD WORM (%) < 8%? O=[N+]([O-])c1cccc(C2(c3cccc([N+](=O)[O-])c3)OOC3(O2)C2CC4CC(C2)CC3C4)c1 (stereo not shown)
OUT: y

IN: Does this compound meet the criterion Adult worms day 49, per os 400 mg/kg, DEAD WORM (%) < 8%? Cc1ccc(S(=O)(=O)O)cc1.NC[C@H]1CC[C@]2(CC1)OOC1(O2)C2CC3CC(C2)CC1C3 (stereo partly shown)
OUT: n

IN: Does this compound meet the criterion Adult worms day 49, per os 400 mg/kg, DEAD WORM (%) < 8%? Clc1ccc(C2(c3ccc(Cl)cc3)OOC3(O2)C2CC4CC(C2)CC3C4)cc1 (stereo not shown)
OUT: y

---

- assay: Pharmacokinetics in dogs (IV and oral dosing)
- condition_notes: in vivo; dog, oral 10 mg/kg
Provide the recorded half-life for the entries that follow.
Give the quantity in h, number only.

IN: Would you kindly share the measured half-life for CC(C)(N)CNC(=O)C[C@H]1CC[C@]2(CC1)OO[C@]1(O2)C2CC3CC(C2)CC1C3 ?
OUT: 2.47

IN: Would you kindly share the measured half-life for NC(=O)CNC[C@H]1CC[C@]2(CC1)OOC1(O2)C2CC3CC(C2)CC1C3 (stereo partly shown) ?
OUT: 1.38

IN: Would you kindly share the measured half-life for Cc1ccc(S(=O)(=O)O)cc1.O=C(C[C@H]1CC[C@]2(CC1)OO[C@]1(O2)C2CC3CC(C2)CC1C3)N1CCNCC1 ?
OUT: 3.26

IN: Would you kindly share the measured half-life for NC[C@H]1CC[C@]2(CC1)OOC1(O2)C2CC3CC(C2)CC1C3 (stereo partly shown) ?
OUT: 2.12
